Assay Info: Primary qHTS assay for Inhibitors of ovarian cancer metastasis using an organotypic tumor microenvironment (TME) model. Note: nearly all actives have a fitted effect of over 65% in size.
Measurement Conditions: SKOV3ip1-GFP adhesion/invasion on 3D omental model, fluorescence; series mostly up to 45.8 µM
About 60 (0.1%) of roughly 46,000 compounds were called active. Not shown: some 3% with an inconclusive outcome. Calls come from the whole dose curve; as a rule, active = well fitted inhibition curve with a large enough effect; inconclusive = small, poorly fitted or top-dose-only effect; inactive = no such curve, though single readings can be large or run the other way. The sample holds actives, similar compounds and a random draw of the others, so the mix is not that of the screen.
Mark one answer only. Choices: y (active), n (inactive)

Some entries whose results are on file:
CCCCNC(=O)C1CCCN(c2nnc(C)c3c(C)n(-c4ccc(Cl)cc4)nc23)C1 (stereo unspecified) :: n
COc1ccc2c(c1)CCc1c(C(=O)Nc3cc(C)ccc3O)noc1-2 :: n

Task: For this compound, state the assay outcome: CCOC(=O)c1c(N)n(-c2cccc(C)c2C)c2nc3ccccc3nc12
Result: n

Task: For this compound, state the assay outcome: COc1ccc(NC(C)=O)cc1NC(=O)CN1CCN(c2ccc(F)cc2)CC1
Result: n

Task: For this compound, state the assay outcome: Cc1ccc(-c2nn3c(=O)cc(CN4CCN(C(=O)Nc5cccc(C(F)(F)F)c5)CC4)nc3s2)cc1
Result: n

Task: For this compound, state the assay outcome: CCN1CCN(c2cc(C)c3cc(NC(=O)c4cc(Cl)ccc4OC)ccc3n2)CC1
Result: y

---

Assay Info: Primary qHTS assay for Inhibitors of ovarian cancer metastasis using an organotypic tumor microenvironment (TME) model. Note: nearly all actives have a fitted effect of over 65% in size.
Measurement Conditions: SKOV3ip1-GFP adhesion/invasion on 3D omental model, fluorescence; series mostly up to 45.8 µM
Hit rate of the full screen: of about 46,000 compounds, about 60 (0.1%) were called active. Not shown: some 3% with an inconclusive outcome. Calls come from the whole dose curve; as a rule, active = well fitted inhibition curve with a large enough effect; inconclusive = small, poorly fitted or top-dose-only effect; inactive = no such curve, though single readings can be large or run the other way. This is one part of a sample in which actives are shown more often than they occur.
Mark one answer only. Choices: TRUE = active, FALSE = inactive

Cc1ccc(C)c(Nc2nnc(-c3ccc(C)c(S(=O)(=O)N4CCCCC4)c3)c3ccccc23)c1 :: FALSE
O=c1c(NCc2cccs2)nccn1-c1ccccc1 :: FALSE
CCc1nccn1S(=O)(=O)c1cc(Br)ccc1Br :: FALSE
Cc1cccc(NC(=O)c2nnn(CC(=O)Nc3ccc(C(C)C)cc3)c2N)c1C :: FALSE
Cc1ccc(NC(=O)CCCn2c(=O)c3cccn3c3ccccc32)cc1Cl :: FALSE

Task: For this molecule, state the assay outcome: CC(C)Cn1c(=O)c2ccccc2n2c(CCC(=O)N3CCN(c4cccc(Cl)c4)CC3)nnc12
Result: FALSE

Task: For this molecule, state the assay outcome: CCc1ccccc1NC(=O)c1cnn(-c2ccc(F)cc2)c1C1CCNCC1
Result: FALSE

Task: For this molecule, state the assay outcome: CC1=C(C(=O)OCc2ccc(C)cc2)C(c2ccccc2Cl)CC(=O)N1 (centres undefined)
Result: FALSE

Task: For this molecule, state the assay outcome: CCOC(=O)c1ccccc1NC(=O)c1sc2nc(-c3ccc(F)cc3)cn2c1C
Result: FALSE

Task: For this molecule, state the assay outcome: Cn1ccc2cc(S(=O)(=O)N3CCCC(C(=O)NCc4ccccc4F)C3)ccc21 (centres undefined)
Result: FALSE

Task: For this molecule, state the assay outcome: CCOc1cc(C2C(C(=O)OC)=C(C)NC3=C2C(=O)c2ccccc23)ccc1O (centres undefined)
Result: FALSE

---

Assay Info: Primary qHTS assay for Inhibitors of ovarian cancer metastasis using an organotypic tumor microenvironment (TME) model. Note: nearly all actives have a fitted effect of over 65% in size.
Measurement Conditions: SKOV3ip1-GFP adhesion/invasion on 3D omental model, fluorescence; series mostly up to 45.8 µM
In all, about 46,000 compounds went through this assay and about 60 (0.1%) were called active. Inconclusive results (about 3%) are left out. Calls follow the shape of the dose curve; as a rule, active = well fitted inhibition curve with a large enough effect; inconclusive = small, poorly fitted or top-dose-only effect; inactive = no such curve, though single readings can be large or run the other way. Shown is part of a subset that was picked to be rich in actives.
Mark one answer only. Choices: active, inactive

Task: For this compound, state the assay outcome: CCc1ccc(S(=O)(=O)c2nnn3c2nc(N2CCN(CC)CC2)c2sccc23)cc1
Result: inactive

Task: For this compound, state the assay outcome: COc1ccc(CCNCc2c(C(=O)O)c(C)n(Cc3cccc(C)c3)c2C)cc1OC
Result: inactive

Task: For this compound, state the assay outcome: CCN(Cc1ccccc1)C(=O)CCS(=O)(=O)c1ccc2c(c1)oc(=O)n2C
Result: inactive

Task: For this compound, state the assay outcome: CCC(C(=O)Nc1cc(OC)ccc1OC)n1c(=O)c(C(F)(F)F)nc2ccccc21 (stereo not drawn)
Result: inactive

Task: For this compound, state the assay outcome: CCOc1ccc(-c2nonc2NC(=O)c2oc3ccc(C)cc3c2C)cc1OCC
Result: inactive

Task: For this compound, state the assay outcome: CCOc1ccccc1N(C)C(=O)c1cc2c(s1)-c1ccccc1OC2
Result: inactive

Task: For this compound, state the assay outcome: Cc1ccccc1-c1nc2cc(NC(=O)c3cccc(OCCC(C)C)c3)ccc2o1
Result: inactive

Task: For this compound, state the assay outcome: COc1ccc(-c2cn3c(n2)sc2cc(C(=O)Nc4ccc(F)cc4)ccc23)cc1
Result: inactive

Task: For this compound, state the assay outcome: COc1ccc(-c2cn3c(C)c(C(=O)Nc4cc(C)cc(C)c4)sc3n2)cc1
Result: active

Task: For this compound, state the assay outcome: COc1ccccc1CNC(=O)CS(=O)(=O)c1cccc2nsnc12
Result: inactive

Task: For this compound, state the assay outcome: Cc1cc(C)c2oc(C(=O)Nc3c(C(=O)Nc4ccccc4)oc4ccccc34)cc(=O)c2c1
Result: inactive

Task: For this compound, state the assay outcome: CC(=O)O[C@]1(C(C)=O)CC[C@@H]2[C@@H]3C[C@H](C)C4=CC(=O)CC[C@]4(C)[C@H]3CC[C@@]21C
Result: inactive

Task: For this compound, state the assay outcome: COc1cccc(Nc2nc3ccccc3c3nncn23)c1
Result: inactive

Task: For this compound, state the assay outcome: CCCCOc1ccc(NC(=O)c2cc3c(n(-c4ccc(Cl)cc4)c2=O)CCCC3=O)cc1
Result: inactive

Task: For this compound, state the assay outcome: COc1cc2ccccc2cc1C(=O)Nc1cccc(-c2nc3ccccc3o2)c1
Result: inactive

Task: For this compound, state the assay outcome: COc1cc(Cl)cn2c(-c3cccc(NC4CNC4)n3)cnc12
Result: inactive

Task: For this compound, state the assay outcome: CCC(=O)N1CCc2cc(Br)cc(S(=O)(=O)Nc3ccc(C)cc3C)c21
Result: inactive

Task: For this compound, state the assay outcome: O=C(CCSCc1cccc(F)c1)NCc1ccccc1
Result: inactive

Task: For this compound, state the assay outcome: CCc1ccc(NC(=O)CSc2nc3c([nH]c4ccccc43)c(=O)n2-c2cccc(OC)c2)cc1
Result: inactive
